Would you kindly list activity at 3 µM for each of these molecules?
tested on: Human Jurkat-E6-1 cells; assay: Measurement of IL-2 secretion of Jurkat cells by ELISA; type: cell-based; conditions: Homo sapiens, Jurkat E6.1; test compound 3.0 μM; anti-CD3/anti-CD28 stimulation 24 hours; read-out: Percentage of the amount of IL-2 secreted from compound treated/DMSO-treated cells
Where a name gives a salt, the structure may show the parent alone.
Note to self: number, then unit, no commentary.

Query: Param readout = activity at 3 µM; param system = Human Jurkat-E6-1 cells; param query = COCCN1CCN(c2ccc(-c3n[nH]c4cc(=O)n(-c5c(C)cccc5F)nc34)cn2)CC1 [Compound 119] ; response: value
Result: 531%

Query: Consider next the molecule Cc1cccc(F)c1-n1nc2c(-c3ccc(N4CCN(CCO)CC4)nc3)n[nH]c2cc1=O [Compound 118] in the same way.
Result: 550%

Query: Consider next the molecule Cc1cccc(F)c1-n1nc2c(-c3ccc4c(c3)CNCC4)n[nH]c2cc1=O [Compound 161, hydrochloride] in the same way.
Result: 393%

Query: Consider next the molecule Cc1cc(C#N)cc(F)c1-n1nc2c(-c3ccc(N4CCN(C(=O)[C@H](C)N)CC4)cc3)n[nH]c2cc1=O [Compound 82] in the same way.
Result: 195%

Query: Consider next the molecule COc1cc(C#N)cc(F)c1-n1nc2c(-c3ccc4c(c3)CN(C)CC4)n[nH]c2cc1=O [Compound 159] in the same way.
Result: 454%
